- tested on: human EHMT2 913-1193 (Homo sapiens, UniProt Q96KQ7)
- Construct: recombinant purified human EHMT2 913-1193, Viva; purchased Viva
- assay details: EHMT2 enzyme assay on histone peptide substrate (EHMT2 PEP)
- Format: biochemical
- test conditions: Table VII; read-out: EHMT2 PEP IC50
Property: IC50; scope: individual compounds

compound	readout kind	endpoint value
CNCC(C)(O)COc1cc(Nc2nccc(OC)n2)ccc1OC (stereo not drawn)	IC50	> 10000 nM
CNc1cc(C)nc(Nc2ccc(OC)c(CNCCN3CC[C@@H](F)C3)c2)n1	IC50	100 to 1000 nM

I'd like to know its IC50. The compound in question is CCNc1cc(C)nc(Nc2ccc(OC)c(OC[C@H](O)CN3CCCC3)c2)n1
< 100 nM

----------
- tested on: EHMT1 (Homo sapiens)
- assay details: EHMT1 enzyme assay on peptide substrate (EHMT1 PEP)
- Assay type: biochemical
- test conditions: Table III; read-out: EHMT1 PEP (IC50 μM)
readout kind: IC50

I'd like to know its IC50. The molecule in question is COc1ccc(Nc2ccc3cn(C)nc3n2)cc1OCCCN1CCCC1 [Compound 402]
> 10 µM

# iterate: CNc1ccnc(Nc2ccc3cn(CCN(C)C)nc3c2)n1 [Compound 404]
> 10 µM

# iterate: CNc1cc(C)nc(Nc2cc(F)c(OC)c(OCCCN3CCCC3)c2)n1 [Compound 301]
> 10 µM

# iterate: CNc1ccnc(Nc2ccc(Cl)c(OCCCN3CCCC3)c2)n1 [Compound 398]
0.1 to 1 µM

# iterate: CCNC(=O)c1cc(Nc2nccc(NC)n2)ccc1OC [Compound 395]
> 10 µM

# iterate: CNc1cc(C)nc(Nc2ccc(OC)c(OCCCOC)c2)n1 [Compound 312]
> 10 µM

# iterate: CNc1ccnc(Nc2ccc(F)c(OCCCN3CCCC3)c2)n1 [Compound 368]
> 10 µM

# iterate: CNc1cc(C)nc(Nc2ccc(OC)c(OCC3CNC3)c2)n1 [Compound 437]
< 0.1 µM

# iterate: CNc1cc(Nc2cc(OCCCN3CCCC3)c(OC)cn2)nc(C)n1 [Compound 325]
1 to 10 µM

# iterate: COc1ccc(Nc2ccnc(NCC3CCN(C(C)=O)CC3)n2)cc1OCCCN1CCCC1 [Compound 340]
0.1 to 1 µM

# iterate: CNc1ccnc(Nc2ccc3cnn(CCN(C)C)c3c2)n1 [Compound 386]
> 10 µM

# iterate: CCc1nc(Nc2ccc(OC)c(OCCCN3CCCC3)c2)nc(NC)c1F [Compound 319]
0.1 to 1 µM

# iterate: CNc1ccnc(Nc2ccc(OC)c(OC[C@@H]3CN(C)C[C@H]3C)c2)n1 (single isomer, unassigned) [Compound 438]
> 10 µM

----------
Property: IC50; scope: individual compounds
- tested on: EHMT2 (Homo sapiens)
- Construct: host or cells: MDA-MB-231
- assay details: MDA-MB-231 H3K9me2 in-cell Western assay (EHMT2 ICW)
- Format: cell-based
- test conditions: Table II; MDA-MB-231 H3K9me2 in-cell Western; read-out: EHMT2 ICW (IC50 μM)

Use these answered entries as a reference point.
COCCCNc1ccnc(Nc2ccc(OC)c(OCCCN3CCCC3)c2)n1 0.1 to 1 µM
CNc1nc(C)cc(Nc2ccc(OC)c(OCCCN3CCCC3)c2)n1 1 to 10 µM
COc1ccc(Nc2nccc(NCCS(=O)(=O)N(C)C)n2)cc1OCCCN1CCCC1 1 to 10 µM
COc1ccc(Nc2nccc(CNC3CCOCC3)n2)cc1OCCCNc1ccccc1 > 10 µM

I'd like to know its IC50. The compound in question is COc1ccc(Nc2ccc3ncn(C)c3n2)cc1OCCCN1CCCC1
> 10 µM

# iterate: COc1ccc(Nc2nc(C)cc(NCC3CCN(C(C)=O)CC3)n2)cc1OCCCN1CCCC1
0.1 to 1 µM

# iterate: CNc1nc(Nc2ccc(OC)c(OCCCN3CCCC3)c2)ncc1C#N
> 10 µM

# iterate: CNc1cc(C)nc(Nc2ccc(F)c(OCCCN3CCCC3)c2)n1
> 10 µM

# iterate: CNC(=O)c1cnc(Nc2ccc(OC)c(OCCCN3CCCC3)c2)nc1
> 10 µM

----------
Property: IC50; scope: individual compounds
- tested on: EHMT1 (Homo sapiens, UniProt Q9H9B1)
- Sequence (Q9H9B1 whole entry, species assumed): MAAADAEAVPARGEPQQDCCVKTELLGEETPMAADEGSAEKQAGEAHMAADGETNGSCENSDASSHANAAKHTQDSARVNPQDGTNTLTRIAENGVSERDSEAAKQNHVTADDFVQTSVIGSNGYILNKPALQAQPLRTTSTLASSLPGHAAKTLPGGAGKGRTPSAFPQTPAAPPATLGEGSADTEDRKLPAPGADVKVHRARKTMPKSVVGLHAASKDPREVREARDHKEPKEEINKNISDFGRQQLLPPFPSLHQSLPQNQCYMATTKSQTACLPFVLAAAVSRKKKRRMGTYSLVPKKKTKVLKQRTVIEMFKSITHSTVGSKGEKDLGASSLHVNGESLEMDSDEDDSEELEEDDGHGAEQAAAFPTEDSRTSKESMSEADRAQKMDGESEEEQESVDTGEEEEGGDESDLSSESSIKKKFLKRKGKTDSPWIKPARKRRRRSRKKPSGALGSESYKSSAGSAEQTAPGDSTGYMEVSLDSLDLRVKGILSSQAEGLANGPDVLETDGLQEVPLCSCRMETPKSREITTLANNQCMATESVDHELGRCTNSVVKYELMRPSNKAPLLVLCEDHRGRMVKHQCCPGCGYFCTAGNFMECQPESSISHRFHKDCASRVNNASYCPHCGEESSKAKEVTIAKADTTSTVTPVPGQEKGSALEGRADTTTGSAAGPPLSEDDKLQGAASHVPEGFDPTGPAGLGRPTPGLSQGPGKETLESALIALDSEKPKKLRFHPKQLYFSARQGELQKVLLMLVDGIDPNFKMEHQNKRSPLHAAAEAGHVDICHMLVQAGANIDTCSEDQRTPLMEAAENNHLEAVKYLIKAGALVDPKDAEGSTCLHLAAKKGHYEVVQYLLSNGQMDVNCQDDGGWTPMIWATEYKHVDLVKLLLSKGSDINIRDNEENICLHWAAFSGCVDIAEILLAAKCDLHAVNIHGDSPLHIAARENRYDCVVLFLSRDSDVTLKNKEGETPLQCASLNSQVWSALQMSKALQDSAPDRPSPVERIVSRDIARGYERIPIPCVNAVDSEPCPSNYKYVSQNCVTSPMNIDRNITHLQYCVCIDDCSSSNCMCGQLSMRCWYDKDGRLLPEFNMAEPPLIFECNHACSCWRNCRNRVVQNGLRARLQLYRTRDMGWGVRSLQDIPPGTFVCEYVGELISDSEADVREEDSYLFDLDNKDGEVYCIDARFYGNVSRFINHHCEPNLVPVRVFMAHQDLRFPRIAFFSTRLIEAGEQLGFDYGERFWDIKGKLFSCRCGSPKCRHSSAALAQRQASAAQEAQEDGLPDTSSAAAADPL
- assay details: EHMT1 enzyme assay on peptide substrate (EHMT1 PEP)
- Format: biochemical
- test conditions: Table VI; read-out: EHMT1 PEP IC50

I'd like to know its IC50. The compound in question is COc1ncc(Nc2nc(C)cc(NCC3COC3)n2)cc1OC[C@H](O)CN1CCCC1
> 10 µM

# iterate: COc1cc(Nc2ccc3[nH]ncc3c2)ncc1OCCCN1CCCC1
> 10 µM

# iterate: COc1cc2c(C3CCN(CC(F)(F)F)CC3)nc(C)nc2cc1OCCCN1CCCC1
> 10 µM

# iterate: COc1ccc(Nc2nc(C)cc(NC3CCCN(C)C3)n2)cc1OCCCN1CCCC1 (stereo not shown)
< 0.1 µM

----------
- tested on: human EHMT2 913-1193 (Homo sapiens, UniProt Q96KQ7)
- Construct: recombinant purified human EHMT2 913-1193, Viva; purchased Viva
- Sequence (Q96KQ7 913-1193): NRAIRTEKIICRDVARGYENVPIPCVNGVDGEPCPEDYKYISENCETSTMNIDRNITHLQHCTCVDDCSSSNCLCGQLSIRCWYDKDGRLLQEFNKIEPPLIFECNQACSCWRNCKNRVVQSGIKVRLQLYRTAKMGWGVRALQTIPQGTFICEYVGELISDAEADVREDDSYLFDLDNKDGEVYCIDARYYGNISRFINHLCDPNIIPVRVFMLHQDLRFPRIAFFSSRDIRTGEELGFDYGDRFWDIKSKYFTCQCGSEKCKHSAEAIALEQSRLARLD
- assay details: EHMT2 enzyme assay on histone peptide substrate (EHMT2 PEP)
- Assay type: biochemical
- test conditions: recombinant human EHMT2 913-1193, histone H3 1-15 peptide, balanced conditions; read-out: EHMT2 PEP (IC50 μM)
Property: IC50; scope: individual molecules

Use these answered entries as a reference point.
molecule	IC50
COc1cc2c(C3CCN(C)CC3)nc(N(C)C)nc2cc1OCCCN1CCCC1	< 0.1 µM
CCc1cc(NC)nc(Nc2cnc(OC)c(OC[C@@H]3CCN(CC)C3)c2)n1	0.1 to 1 µM
CNc1ccnc(Nc2ccc(OC)c(OC[C@@H]3CN(C)C[C@@H]3C)c2)n1	0.1 to 1 µM
CNc1cc(C)nc(Nc2ccc(OC)c(OCCCCN(C)C)c2)n1	1 to 10 µM
CNc1nc(C2CCCC2)c2cc(OC)c(OCCCN3CCCC3)cc2n1	1 to 10 µM
CNc1cc(C)nc(Nc2cc(Cl)c(OC)c(OCCCN3CCCC3)c2)n1	1 to 10 µM
COc1cc2c(C3CCN(C)CC3)nc(NC3CCCC3)nc2cc1OCCCN1CCCC1	< 0.1 µM
CNc1cc(C)nc(Nc2ccc(OC)c(OC[C@H]3C[C@H](N(C)C)C3)c2)n1	> 10 µM

I'd like to know its IC50. The molecule in question is COc1cnc(Nc2cccc3nccn23)cc1OCCCN1CCCC1
1 to 10 µM

# iterate: CNc1cc(C)nc(Nc2ccc(OC)c(OCCCN(C)C3CC3)c2)n1
< 0.1 µM

# iterate: CNc1cc(C(C)C)nc(Nc2ccc(OC)c(OCCCN3CCCC3)c2)n1
< 0.1 µM

# iterate: COc1ncc(Nc2nc(C)cc(NCC3CCOCC3)n2)cc1OCCCN1CCCC1
< 0.1 µM

# iterate: CCN1CC[C@@H](COc2cc(Nc3nc(C)cc(NC(C)C)n3)ccc2OC)C1
0.1 to 1 µM

# iterate: CCc1ncc(Nc2nc(C)cc(NC)n2)cc1OCCCN1CCCC1
1 to 10 µM

# iterate: CNc1cc(C)nc(Nc2ccc(OC)c(OCC3CCN(CCO)C3)c2)n1 (stereo not drawn)
< 0.1 µM

# iterate: CNc1nc(C2=CCOCC2)c2cc(OC)c(OCCCN3CCCC3)cc2n1
1 to 10 µM

# iterate: CN1CCC(COc2cnc(NCC3CCOCC3)nc2)C1 (stereo not drawn)
> 10 µM

# iterate: CNc1nc(C2CCN(C)CC2)c2cc(OC)c(OCCCN3CC4CC4C3)cc2n1 (stereo not drawn)
< 0.1 µM

----------
Property: IC50; scope: individual molecules
- tested on: EHMT2 (Homo sapiens)
- Construct: host or cells: MDA-MB-231
- assay details: MDA-MB-231 H3K9me2 in-cell Western assay (EHMT2 ICW)
- Format: cell-based
- test conditions: Table II; MDA-MB-231 H3K9me2 in-cell Western; read-out: EHMT2 ICW (IC50 μM)

Use these answered entries as a reference point.
COc1ccc(Nc2cnnc(NCC3CCN(C(C)=O)CC3)c2)cc1OCCCN1CCCC1 > 10 µM
CNc1ccnc(Nc2ccc(OC)c(OCCCN3CCCC3)c2)n1 < 0.1 µM
CC(=O)N1CCC(CNc2ccnc(Nc3ccc(Cl)c(OCCCN4CCCC4)c3)n2)CC1 1 to 10 µM
COc1ccc(Nc2ccnc(N(C)CC3CCN(C(C)=O)CC3)c2)cc1OCCCN1CCCC1 > 10 µM
COc1ccc(Nc2nccc(OCC3CCN(C(C)=O)CC3)n2)cc1OCCCN1CCCC1 > 10 µM
COc1ccc(NCCCN2CCCC2)cc1Nc1nccc(NCC2CCOCC2)n1 > 10 µM
COc1ccc(Nc2nccc(NCC3CCN(CC(F)F)CC3)n2)cc1OCCCN1CCCC1 0.1 to 1 µM
COCCN(C)c1ccnc(Nc2ccc(OC)c(OCCCN3CCCC3)c2)n1 > 10 µM
COc1ccc(Nc2nccc(N3CCC(NC(C)=O)CC3)n2)cc1OCCCN1CCCC1 > 10 µM
COc1ccc(Nc2nccc(NCc3cccnc3)n2)cc1OCCCN1CCCC1 0.1 to 1 µM

For the record COc1ccc(Nc2nccc(NCC3CCN(C(C)=O)CC3)n2)cc1COCCN1CCCC1 , what value of IC50 is listed for EHMT2 (Homo sapiens)?
1 to 10 µM

# iterate: COc1ccc(Nc2nccc(N3CC(C(=O)N(C)C)C3)n2)cc1OCCCN1CCCC1
> 10 µM

# iterate: COc1ccc(Nc2ccnc(OCC3CCN(C(C)=O)CC3)c2)cc1OCCCN1CCCC1
> 10 µM

# iterate: CNc1ccnc(Nc2ccc(OC)c(OCCCN3CCOCC3)c2)n1
1 to 10 µM

# iterate: CNc1ccnc(Nc2ccc3c(c2)N(C(=O)CCN(C)C)CC3)n1
> 10 µM

# iterate: COc1ccc(Nc2nccc(NCc3ccncc3)n2)cc1OCCCN1CCCC1
0.1 to 1 µM

# iterate: COc1ccc(Nc2nccc(NCc3ccc4nccn4c3)n2)cc1OCCCN1CCCC1
0.1 to 1 µM
